Measured IC50 accompanies every entry in the list below.
- study target: AAK1 (full-length human protein) (Homo sapiens, UniProt Q2M2I8)
- Sequence (Q2M2I8 1-863 isoform Q2M2I8-2): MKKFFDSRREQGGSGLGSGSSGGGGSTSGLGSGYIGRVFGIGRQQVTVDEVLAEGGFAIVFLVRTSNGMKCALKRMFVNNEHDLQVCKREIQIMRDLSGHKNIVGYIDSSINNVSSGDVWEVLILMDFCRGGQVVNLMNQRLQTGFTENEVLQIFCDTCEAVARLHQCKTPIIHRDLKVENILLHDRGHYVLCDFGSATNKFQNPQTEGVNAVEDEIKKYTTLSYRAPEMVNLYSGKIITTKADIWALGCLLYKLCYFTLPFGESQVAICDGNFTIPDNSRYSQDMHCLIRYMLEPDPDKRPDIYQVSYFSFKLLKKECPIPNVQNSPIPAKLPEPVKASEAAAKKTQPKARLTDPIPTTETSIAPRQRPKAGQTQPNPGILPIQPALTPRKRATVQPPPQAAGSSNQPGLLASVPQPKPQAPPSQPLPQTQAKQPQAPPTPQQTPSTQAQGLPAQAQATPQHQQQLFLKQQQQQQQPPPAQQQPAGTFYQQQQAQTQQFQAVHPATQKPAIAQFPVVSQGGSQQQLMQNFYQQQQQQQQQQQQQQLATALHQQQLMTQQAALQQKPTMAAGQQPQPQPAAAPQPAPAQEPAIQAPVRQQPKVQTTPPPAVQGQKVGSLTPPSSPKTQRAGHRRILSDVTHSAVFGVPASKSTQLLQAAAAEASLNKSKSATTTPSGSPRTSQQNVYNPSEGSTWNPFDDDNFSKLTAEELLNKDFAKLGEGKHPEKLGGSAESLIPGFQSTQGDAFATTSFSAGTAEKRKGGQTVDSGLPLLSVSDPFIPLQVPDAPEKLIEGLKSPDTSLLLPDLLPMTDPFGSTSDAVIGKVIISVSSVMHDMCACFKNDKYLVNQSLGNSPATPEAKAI
- assay text: P81 filter plate assay
- Assay type: biochemical
- measurement conditions: 0.2 nM-scale full-length human AAK1, Mu2 substrate, 33P-ATP, one hour at room temperature; class symbols

Recorded results for 5 compounds are shown here.
>  <molecular string>
COc1ncccc1-c1cnc2ccc(-c3ccn(CCC(C)C)c(=O)c3)nn12

>  <IC50>
≤ 0.01 µM

$$$$
>  <molecular string>
CC(=O)c1cccc(-c2ccc3ncc(-c4ccc(CN)cc4)n3n2)c1

>  <IC50>
≤ 0.01 µM

$$$$
>  <molecular string>
CC(C)C[C@H](N)Cn1ccc(-c2ccc3ncc(Br)n3n2)cc1=O

>  <IC50>
0.1 to 1 µM

$$$$
>  <molecular string>
CC(C)CCC(=O)c1cccc(-c2ccc3ncc(-c4ccc(CN)cc4)n3n2)c1

>  <IC50>
≤ 0.01 µM

$$$$
>  <molecular string>
COc1nc(C)ccc1-c1cnc2ccc(-c3ccn(CCC(C)C)c(=O)c3)nn12

>  <IC50>
≤ 0.01 µM

$$$$

Incoming: Form field: reported IC50 of CC(=O)c1cnc2ccc(-c3ccn(CCC(C)C)c(=O)c3)nn12
Outgoing: 0.01 to 0.1 µM

----------
Measured IC50 accompanies every entry in the list below.
- study target: AAK1 (full-length human protein) (Homo sapiens, UniProt Q2M2I8)
- assay text: P81 filter plate assay
- Assay type: biochemical
- measurement conditions: 0.2 nM-scale full-length human AAK1, Mu2 substrate, 33P-ATP, one hour at room temperature; class symbols

Recorded results for 4 compounds are shown here.
>  <molecular string>
CC(C)CNC(=O)c1cncc(-c2ccc3ncc(-c4ccc(CN)cc4)n3n2)c1

>  <measurement label>
IC50

>  <measured value>
≤ 10 nM

$$$$
>  <molecular string>
COc1cnccc1-c1cnc2ccc(-c3cccc(C(=O)CCC(C)C)c3)nn12

>  <measurement label>
IC50

>  <measured value>
≤ 10 nM

$$$$
>  <molecular string>
CNC(=O)c1ccc(-c2cnc3ccc(-c4cccc(C(=O)NCC(C)C)c4)nn23)cc1

>  <measurement label>
IC50

>  <measured value>
≤ 10 nM

$$$$
>  <molecular string>
Cc1cnc2ccc(-c3ccn(CCC(C)(C)C)c(=O)c3)nn12

>  <measurement label>
IC50

>  <measured value>
10 to 100 nM

$$$$

Incoming: Form field: reported IC50 of CC(C)(C)Cn1cc(-c2ccc3ncc(Br)n3n2)cn1
Outgoing: 10 to 100 nM

----------
- study target: AAK1 (full-length human protein) (Homo sapiens)
- assay text: P81 filter plate assay
- Format: biochemical
- measurement conditions: 0.2 nM-scale full-length human AAK1, Mu2 substrate, 33P-ATP, one hour at room temperature; class symbols
Measured IC50 accompanies every entry in the list below.

Incoming: Form field: reported IC50 of CC(C)CCn1ccc(-c2ccc3ncc(Cl)n3n2)cc1=O
Outgoing: ≤ 10 nM

Incoming: Form field: reported IC50 of COc1cnccc1-c1cnc2ccc(-c3cccc(C(=O)NCC(C)C)c3)nn12
Outgoing: ≤ 10 nM

Incoming: Form field: reported IC50 of CC(C)CCn1cc(-c2ccc3nccn3n2)cn1
Outgoing: 100 to 1000 nM

Incoming: Form field: reported IC50 of COc1ncccc1-c1cnc2ccc(-c3cnn(CC(C)(C)C)c3)nn12
Outgoing: ≤ 10 nM

Reference for the values: patent US20150183791A1
